target: plasma purified human complement protein C3 (human) (UniProt P01024); test: cell-based or functional assay
Sequence (P01024 23-667, chain 1 of 2): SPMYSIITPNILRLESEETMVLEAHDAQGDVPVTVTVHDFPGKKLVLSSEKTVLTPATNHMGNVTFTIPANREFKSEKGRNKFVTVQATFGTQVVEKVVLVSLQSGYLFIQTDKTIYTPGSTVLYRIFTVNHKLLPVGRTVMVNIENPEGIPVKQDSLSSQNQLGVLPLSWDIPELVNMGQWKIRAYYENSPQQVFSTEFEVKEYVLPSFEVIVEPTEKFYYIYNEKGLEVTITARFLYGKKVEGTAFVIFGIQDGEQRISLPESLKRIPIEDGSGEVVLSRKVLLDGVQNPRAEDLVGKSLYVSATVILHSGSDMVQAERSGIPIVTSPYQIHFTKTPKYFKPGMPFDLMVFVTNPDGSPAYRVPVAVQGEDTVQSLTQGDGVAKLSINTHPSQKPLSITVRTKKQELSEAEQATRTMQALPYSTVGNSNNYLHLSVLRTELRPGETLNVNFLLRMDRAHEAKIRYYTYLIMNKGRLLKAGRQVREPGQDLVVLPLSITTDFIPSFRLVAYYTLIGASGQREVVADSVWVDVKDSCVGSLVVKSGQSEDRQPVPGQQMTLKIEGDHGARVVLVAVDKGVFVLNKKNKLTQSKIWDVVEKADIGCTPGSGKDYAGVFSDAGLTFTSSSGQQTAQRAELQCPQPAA
Sequence (P01024 672-1663, chain 2 of 2): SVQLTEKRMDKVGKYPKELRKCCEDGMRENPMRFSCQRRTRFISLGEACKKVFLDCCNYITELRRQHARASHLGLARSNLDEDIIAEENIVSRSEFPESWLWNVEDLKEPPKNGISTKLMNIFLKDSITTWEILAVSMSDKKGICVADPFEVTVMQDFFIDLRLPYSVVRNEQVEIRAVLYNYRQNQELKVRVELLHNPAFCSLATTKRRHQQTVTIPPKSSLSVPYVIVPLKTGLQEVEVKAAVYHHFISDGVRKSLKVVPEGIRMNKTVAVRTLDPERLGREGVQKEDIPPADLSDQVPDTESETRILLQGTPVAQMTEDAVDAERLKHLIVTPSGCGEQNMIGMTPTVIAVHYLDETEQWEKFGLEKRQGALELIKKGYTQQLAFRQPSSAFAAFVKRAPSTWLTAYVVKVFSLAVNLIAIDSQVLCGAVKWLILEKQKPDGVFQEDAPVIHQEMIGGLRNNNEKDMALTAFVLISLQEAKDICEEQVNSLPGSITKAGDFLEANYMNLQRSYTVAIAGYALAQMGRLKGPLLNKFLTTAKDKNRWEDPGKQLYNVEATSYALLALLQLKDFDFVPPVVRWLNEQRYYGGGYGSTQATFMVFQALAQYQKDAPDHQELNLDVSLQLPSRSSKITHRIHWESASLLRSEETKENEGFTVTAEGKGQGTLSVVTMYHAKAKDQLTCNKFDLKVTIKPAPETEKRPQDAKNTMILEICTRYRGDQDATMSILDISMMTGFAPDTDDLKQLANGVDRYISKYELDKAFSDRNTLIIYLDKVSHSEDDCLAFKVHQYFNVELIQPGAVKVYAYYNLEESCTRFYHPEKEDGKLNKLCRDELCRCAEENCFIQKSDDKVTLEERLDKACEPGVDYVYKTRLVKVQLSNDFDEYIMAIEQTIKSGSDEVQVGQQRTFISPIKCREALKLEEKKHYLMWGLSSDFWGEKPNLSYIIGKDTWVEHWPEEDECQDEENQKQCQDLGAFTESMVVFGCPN
MEASURED ENDPOINT: EC50 of hC3 cleavage (nM)
Numbers only, in nM.

These solved cases illustrate the format of a correct answer.
# BINDER, RESULT UNIT, EC50 of hC3 cleavage
measured = [
    ("MTSP-1 H40R/I41H/K86R/F97D/K110R/C122S/K134R/G151N/K157R/K224R/K239R (enzyme) VVGGTDADEGEWPWQVSLHALGQGRHCGASLISPNWLVSAAHCYIDDRGFRYSDPTQWTAFLGLHDQSQRSAPGVQERRLRRIISHPFFNDDTFDYDIALLELERPAEYSSMVRPISLPDASHVFPAGRAIWVTGWGHTQYGGTNALILQRGEIRVINQTTCENLLPQQITPRMMCVGFLSGGVDSCQGDSGGPLSSVEADGRIFQAGVVSWGDGCAQRNRPGVYTRLPLFRDWIRENTGV", "nM", 304),
    ("MTSP-1 I41R/ins97aE/F97T/T98G/F99L/C122S/G151D/Q175L/Q192E (enzyme) VVGGTDADEGEWPWQVSLHALGQGHRCGASLISPNWLVSAAHCYIDDRGFRYSDPTQWTAFLGLHDQSQRSAPGVQERRLKRIISHPFFNDTEGLDYDIALLELEKPAEYSSMVRPISLPDASHVFPAGKAIWVTGWGHTQYGGTDALILQKGEIRVINQTTCENLLPQLITPRMMCVGFLSGGVDSCEGDSGGPLSSVEADGRIFQAGVVSWGDGCAQRNKPGVYTRLPLFRDWIKENTGV", "nM", 163),
]

Which EC50 of hC3 cleavage value belongs to MTSP-1 Q38H/I41S/D60bV/F60eQ/Y60gF/ins97aE/F97T/T98G/F99L/C122S/Q175L/Q192I (enzyme) VVGGTDADEGEWPWQVSLHALGHGHSCGASLISPNWLVSAAHCYIDVRGQRFSDPTQWTAFLGLHDQSQRSAPGVQERRLKRIISHPFFNDTEGLDYDIALLELEKPAEYSSMVRPSLPDASHVFPAGKAIWVTGWGHTQYGGTGALILQKGEIRVINQTTCENLLPQLITPRMMCVGFLSGGVDSCIGDSGGPLSSVEADGRIFQAGVVSWGDGCAQRNKPGVYTRLPLFRDWIKENTGV ?
5.95
